target: MAPK15 (human) (UniProt Q8TD08); assay: radiometric filter-binding kinase assay; settings: compound 1.0 µM
Sequence (Q8TD08 whole entry, looked up): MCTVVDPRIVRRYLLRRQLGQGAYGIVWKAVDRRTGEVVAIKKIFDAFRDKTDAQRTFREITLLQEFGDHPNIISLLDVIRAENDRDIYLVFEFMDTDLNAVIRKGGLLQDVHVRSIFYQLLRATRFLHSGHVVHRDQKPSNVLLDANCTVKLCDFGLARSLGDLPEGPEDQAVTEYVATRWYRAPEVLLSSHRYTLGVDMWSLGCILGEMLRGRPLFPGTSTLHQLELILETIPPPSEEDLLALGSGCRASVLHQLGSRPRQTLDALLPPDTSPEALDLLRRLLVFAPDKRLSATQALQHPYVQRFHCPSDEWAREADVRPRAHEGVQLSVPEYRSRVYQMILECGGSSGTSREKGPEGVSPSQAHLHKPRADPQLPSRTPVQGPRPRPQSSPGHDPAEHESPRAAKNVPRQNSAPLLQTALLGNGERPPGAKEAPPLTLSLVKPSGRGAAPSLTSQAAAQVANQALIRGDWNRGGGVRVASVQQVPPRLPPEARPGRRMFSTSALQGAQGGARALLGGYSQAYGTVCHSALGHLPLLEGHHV
readout-type: residual activity

O=C(NCCCNc1nc(Nc2cccc(CN3CCOCC3)c2)ncc1C1CC1)C1CCC1 | 34%
NC1(c2ccc(-c3nc4ccn5c(=O)[nH]nc5c4cc3-c3ccccc3)cc2)CCC1 | 89%
COc1ccc(-n2ncc3cnc(Nc4cc(OC)c(OC)c(OCCCN5CCN(C)CC5)c4)nc32)cc1 | 4%
CC(C)(C#N)c1ccc(N2C(=O)OCc3cnc4ccc(-c5cnc6ccccc6c5)cc4c32)cc1 | 73%
O=c1c(O)c(-c2ccc(O)c(O)c2)oc2cc(O)c(O)c(O)c12 | 89%
COc1cc(O)c2c(c1)/C=C/C[C@H](O)[C@H](O)C(=O)/C=C\C[C@H](C)OC2=O | 4%
NC(=O)Nc1ccc2c(c1)/C(=C/c1cc(-c3cccnc3)c[nH]1)C(=O)N2 | 2%
COc1cc(O)c2c(c1)[C@H]1OC1C[C@H](O)[C@H](O)C(=O)/C=C\C[C@H](C)OC2=O (some centres undefined) | 11%
NC(=O)c1cc(-c2ccnc(NC3CCCCC3)c2)nc(N2CCNCC2)c1 | 26%
C[C@H]1CCCC(=O)CCC/C=C/c2cc(O)cc(O)c2C(=O)O1 | 77%

Q: Sample C=C1C(=O)OC2C1CC/C(C)=C/CCC1(C)OC21 (centres undefined) — what was its residual activity?
Ans: 98%

Q: Let us now turn to "Cn1c(=O)c2c(ncn2C)n(C)c1=O"
Ans: 95%

Q: Let us now turn to "COc1cc(C(=O)N2CCOCC2)c(F)cc1Nc1ncc(C(F)(F)F)c(NC2CC2)n1"
Ans: 81%

Q: Let us now turn to "Oc1ccc(/C=C/c2cc(O)cc(O)c2)cc1"
Ans: 36%
